# Test system: KB
# procedure_text: Cytotoxicity against human KB cells assessed as reduction in viable cells after 48 hrs by MTT assay
# Type: functional, cell-based
assay_endpoint: pIC50
Reminder that pIC50 means the negative base-10 logarithm of the concentration expressed in mol/L.

Worked cases, pIC50 given:
molecule	reported
CC(C)CCNC(=O)[C@@H](Cc1ccc2c(c1)OCO2)[C@@H](CO)Cc1ccc2c(c1)OCO2	5.05
O=C(NCCO)[C@@H](Cc1ccc2c(c1)OCO2)[C@@H](CO)Cc1ccc2c(c1)OCO2	5.10
O=C1[C@@H](Cc2ccc3c(c2)OCO3)[C@H](Cc2ccc3c(c2)OCO3)C(=O)N1CCc1ccccc1	4.20
CC(C)CCN1C(=O)[C@@H](Cc2ccc3c(c2)OCO3)[C@H](Cc2ccc3c(c2)OCO3)C1=O	5.11
O=C(NCc1ccccc1)[C@@H](Cc1ccc2c(c1)OCO2)[C@@H](CO)Cc1ccc2c(c1)OCO2	5.04
O=C(NCCc1ccccc1)[C@@H](Cc1ccc2c(c1)OCO2)[C@@H](CO)Cc1ccc2c(c1)OCO2	5.15
OC1OC[C@@H](Cc2ccc3c(c2)OCO3)[C@@H]1Cc1ccc2c(c1)OCO2 (stereo partly drawn)	5.09
COc1ccc(CN2C(=O)[C@@H](Cc3ccc4c(c3)OCO4)[C@H](Cc3ccc4c(c3)OCO4)C2=O)cc1	5.04

Which pIC50 is listed for OC[C@@H](Cc1ccc2c(c1)OCO2)[C@@H](CO)Cc1ccc2c(c1)OCO2 ? 5.11

Next entry: O=C(NCc1c[nH]c2ccccc12)[C@@H](Cc1ccc2c(c1)OCO2)[C@@H](CO)Cc1ccc2c(c1)OCO2 5.20

Next entry: O=C(O)CC1OC[C@@H](Cc2ccc3c(c2)OCO3)[C@@H]1Cc1ccc2c(c1)OCO2 (stereo partly drawn) 4.13

Next entry: O=C(NCc1ccc(F)cc1)[C@@H](Cc1ccc2c(c1)OCO2)[C@@H](CO)Cc1ccc2c(c1)OCO2 4.47

Next entry: COc1cccc(CNC(=O)[C@@H](Cc2ccc3c(c2)OCO3)[C@@H](CO)Cc2ccc3c(c2)OCO3)c1 4.09

Next entry: O=C(NCc1ccc(C(F)(F)F)cc1)[C@@H](Cc1ccc2c(c1)OCO2)[C@@H](CO)Cc1ccc2c(c1)OCO2 4.72

Next entry: O=C1OC[C@@H](Cc2ccc3c(c2)OCO3)[C@@H]1Cc1ccc2c(c1)OCO2 5.11

Next entry: COc1ccc(CNC(=O)[C@@H](Cc2ccc3c(c2)OCO3)[C@@H](CO)Cc2ccc3c(c2)OCO3)cc1 5.04

Next entry: O=C1[C@@H](Cc2ccc3c(c2)OCO3)[C@H](Cc2ccc3c(c2)OCO3)C(=O)N1Cc1ccccc1 5.13

Next entry: O=C1[C@@H](Cc2ccc3c(c2)OCO3)[C@H](Cc2ccc3c(c2)OCO3)C(=O)N1Cc1ccc(F)cc1 5.05

====

# System: SiHa
# procedure_text: Cytotoxicity against human SiHa cells assessed as reduction in viable cells after 48 hrs by MTT assay
# Format: functional, cell-based
assay_endpoint: IC50 (µM)
Please state the figure in µM; there is no need to write the unit.

Worked cases, IC50 given:
structure_as_smiles	units	IC50
CC(C)CCN1C(=O)[C@@H](Cc2ccc3c(c2)OCO3)[C@H](Cc2ccc3c(c2)OCO3)C1=O	µM	89.3
O=C(NCCc1ccccc1)[C@@H](Cc1ccc2c(c1)OCO2)[C@@H](CO)Cc1ccc2c(c1)OCO2	µM	57.5
O=C(NCc1ccc(C(F)(F)F)cc1)[C@@H](Cc1ccc2c(c1)OCO2)[C@@H](CO)Cc1ccc2c(c1)OCO2	µM	73.7
CC(C)CCNC(=O)[C@@H](Cc1ccc2c(c1)OCO2)[C@@H](CO)Cc1ccc2c(c1)OCO2	µM	95.8
O=C1OC[C@@H](Cc2ccc3c(c2)OCO3)[C@@H]1Cc1ccc2c(c1)OCO2	µM	68.4
O=C1[C@@H](Cc2ccc3c(c2)OCO3)[C@H](Cc2ccc3c(c2)OCO3)C(=O)N1CCc1ccccc1	µM	96.3
COc1ccc(CN2C(=O)[C@@H](Cc3ccc4c(c3)OCO4)[C@H](Cc3ccc4c(c3)OCO4)C2=O)cc1	µM	33.4
COc1cccc(CNC(=O)[C@@H](Cc2ccc3c(c2)OCO3)[C@@H](CO)Cc2ccc3c(c2)OCO3)c1	µM	25.3

Which IC50 is listed for COc1ccc(CNC(=O)[C@@H](Cc2ccc3c(c2)OCO3)[C@@H](CO)Cc2ccc3c(c2)OCO3)cc1 ? 91.5

Next entry: O=C(NCc1ccc(F)cc1)[C@@H](Cc1ccc2c(c1)OCO2)[C@@H](CO)Cc1ccc2c(c1)OCO2 80

Next entry: O=C(NCCO)[C@@H](Cc1ccc2c(c1)OCO2)[C@@H](CO)Cc1ccc2c(c1)OCO2 85.2

====

# System: K562
# procedure_text: Cytotoxicity against human K562 cells assessed as reduction in viable cells after 48 hrs by MTT assay
# Type: functional, cell-based
# protocol_conditions: K562, 48 h
Reported IC50 values follow for various molecules

O=C1[C@@H](Cc2ccc3c(c2)OCO3)[C@H](Cc2ccc3c(c2)OCO3)C(=O)N1Cc1ccc(F)cc1 > 100 µM

Which IC50 is listed for O=C(NCc1c[nH]c2ccccc12)[C@@H](Cc1ccc2c(c1)OCO2)[C@@H](CO)Cc1ccc2c(c1)OCO2 ? > 100 µM

Next entry: CC(C)CCN1C(=O)[C@@H](Cc2ccc3c(c2)OCO3)[C@H](Cc2ccc3c(c2)OCO3)C1=O > 100 µM
